Measurement type: glass transition temperature (°C)

Example compounds with recorded glass transition temperature:
Compound | glass transition temperature [°C]
*OS(=O)(=O)c1cccc(S(=O)(=O)Oc2ccc(C(C)(C)c3ccc(*)cc3)cc2)c1 (repeat unit) | 124.00
*c1ccc(-c2ccc(-c3ccc(-c4ccc(-c5ccc6c(c5)C(=O)N(c5ccc(Oc7ccc(C(C)(C)c8ccc(Oc9ccc(N%10C(=O)c%11ccc(*)cc%11C%10=O)cc9)cc8)cc7)cc5)C6=O)cc4)cc3)cc2)cc1 (repeat unit) | 236.00
*c1ccc(Oc2ccc(C3(c4ccc(Oc5ccc(N6C(=O)c7ccc(Oc8c(C)cc(C(C)(C)c9cc(C)c(Oc%10ccc%11c(c%10)C(=O)N(*)C%11=O)c(C)c9)cc8C)cc7C6=O)cc5)cc4)CC4CC3C3CCCC43)cc2)cc1 (repeat unit) | 262.00

I: *C(=O)Nc1ccc(Oc2ccccc2-c2ccccc2Oc2ccc(NC(=O)c3ccc4c(c3)C(=O)N(c3ccc(Oc5cccc(Oc6ccc(N7C(=O)c8ccc(*)cc8C7=O)cc6)c5)cc3)C4=O)cc2)cc1 (repeat unit)
II: *COC(=O)NCCCCCCNC(=O)OCc1ccc(*)o1 (repeat unit)
Of the two listed items, which has the higher glass transition temperature? First: I Second: II I would appreciate it if you answered with the label of your choice. I
(I: 229.00 °C, II: 33.00 °C)

----------
Measurement type: glass transition temperature (°C)

Compound | Meas value
*Nc1ccc(C(c2ccc(NC(=O)c3ccc(-c4ccc(C(*)=O)cc4)cc3)cc2)(P2(=O)Oc3ccccc3-c3ccccc32)P2(=O)Oc3ccccc3-c3ccccc32)cc1 (repeat unit) | 251.00
*c1ccc(Oc2ccc(-c3ccc(Oc4ccc(N5C(=O)CC(=O)N(*)C5=S)cc4)cc3)cc2)cc1 (repeat unit) | 158.50
*c1cccc(P(=O)(c2ccccc2)c2cccc(N3C(=O)c4ccc(Oc5ccc(C(C)(C)c6ccc(Oc7ccc8c(c7)C(=O)N(*)C8=O)cc6)cc5)cc4C3=O)c2)c1 (repeat unit) | 213.00
*CCC1C(=O)N(CC)C(=O)C1* (repeat unit) | 109.20

a: *c1ccc(Oc2ccc3ccc(Oc4ccc(-c5nc(*)nc(-c6ccccc6)n5)cc4)cc3c2)cc1 (repeat unit)
b: *O[Si](*)(C)CCCCCCCCCCC(=O)Oc1ccc2cc(C(=O)OC3CCC4(C)C(=CCC5C4CCC4(C)C(C(C)CCCC(C)C)CCC54)C3)ccc2c1 (repeat unit)
Given the listed items, does a or b have the lesser reported glass transition temperature? API: response body contains the label of the selected item. b

----------
Measurement type: glass transition temperature (°C)

P: *Nc1cc([N+](=O)[O-])c(NC(=O)CCCCCCCCCCC(*)=O)cc1/C=C/c1ccc(N(C)C)cc1 (repeat unit)
Q: *c1ccc(-c2cc(CCCCCCCC)c(-c3ccc(-c4ccc(-c5sc(-c6ccc([Si](*)(CCCC)CCCC)s6)cc5CCCCCCCC)s4)s3)s2)s1 (repeat unit)
For the two items P and Q , which reports the higher glass transition temperature value? # answer = label of selected item P
(P: 144.00 °C, Q: -1.00 °C)

a: *C(=O)c1ccc2c(c1)C(=O)N(c1ccc(Oc3ccc(C(C)(C)c4ccccc4)cc3)c(N3C(=O)c4ccc(*)cc4C3=O)c1)C2=O (repeat unit)
b: *CCCCCCCCCCCCOC(=O)c1ccc(-c2ccc(C(=O)O*)cc2)cc1 (repeat unit)
Rank a against b by their glass transition temperature values and give the higher one. # answer = label of selected item a

----------
Measurement type: glass transition temperature (°C)

Check out these entries, answers already filled in.
Compound | glass transition temperature, °C
*C(=O)Nc1cc(NC(=O)c2ccc3[nH]c(-c4cc(-c5nc6cc(*)ccc6[nH]5)cc(N5C(=O)c6ccccc6C5=O)c4)nc3c2)cc(-c2nc3ccccc3[nH]2)c1 (repeat unit) | 334.00
*CCCCCCCCCCCC(=O)Oc1ccc2cc(OC(=O)CCCCCCCCCCCn3c(=O)c4cc5c(=O)n(*)c(=O)c5cc4c3=O)ccc2c1 (repeat unit) | 62.00
*CC(*)(C)C(=O)OCC1CC(NC(=O)OC(C)(C)C)CN1C(=O)OC(C)(C)C (repeat unit) | 127.00

A: *CCCCCCCCc1nc2cc(NC(=O)CCCCCCCCC(=O)Nc3ccc4oc(*)nc4c3)ccc2o1 (repeat unit)
B: *CCCCCCCCNC(=O)CCCCCCCCCCC(=O)N* (repeat unit)
Higher glass transition temperature between A and B ? When you have decided, please share the label of that item. A
(A: 93.00 °C, B: 50.00 °C)

a: *Oc1ccc(-c2ccc(OC(*)(Oc3ccccc3)Oc3ccccc3)cc2)cc1 (repeat unit)
b: *c1cc(CCOC(=O)NCCCC)c(*)s1 (repeat unit)
c: *OC(=O)OCCCCCCOC(=O)OC1COC2C(*)COC12 (repeat unit)
Hello, I need these entries ordered by glass transition temperature, highest reading first. Thanks! Ranked list of labels, please, in the requested order. a, b, c
(a: 112.00 °C, b: 67.50 °C, c: 27.50 °C)

----------
Measurement type: glass transition temperature (°C)

Example cases with answers are listed next.
Compound | Measurement type | Meas value
*C(=O)c1cc2c(cc1Cl)C(=O)N(c1cc(Cl)cc(N3C(=O)c4cc(*)c(Cl)cc4C3=O)c1)C2=O (repeat unit) | glass transition temperature | 311.00
*c1cccc(OCCCOc2cccc(N3C(=O)c4ccc(-c5ccc6c(c5)C(=O)N(*)C6=O)cc4C3=O)c2)c1 (repeat unit) | glass transition temperature | 184.00
*c1cccc(C(=O)Nc2ccc(Cc3ccc(N4C(=O)c5ccc(S(=O)(=O)c6ccc7c(c6)C(=O)N(c6ccc(Cc8ccc(NC(=O)c9cccc(-c%10nc%11cc(-c%12ccc%13[nH]c(*)nc%13c%12)ccc%11[nH]%10)c9)cc8)cc6)C7=O)cc5C4=O)cc3)cc2)c1 (repeat unit) | glass transition temperature | 270.00
*CCCCOC(=O)NCCCCCCNC(=O)O* (repeat unit) | glass transition temperature | 33.50
*CCC[Si](*)(C)CCC[Si](C)(C)C (repeat unit) | glass transition temperature | -46.00

1: *CC(O)COC(=O)CCCCC(=O)OCC(O)COc1ccc(C(C)(C)c2ccc(O*)cc2)cc1 (repeat unit)
2: *CC(O)COc1ccc(C(=O)c2ccc(O*)cc2)cc1 (repeat unit)
Could you point out whether the larger glass transition temperature belongs to 1 or to 2 ? In your reply, give the label of the chosen option. 2
(2: 130.00 °C, 1: 34.00 °C)

----------
Measurement type: glass transition temperature (°C)

P: */C(=N\c1ccccc1)c1ccc(-c2ccc(*)cc2)cc1 (repeat unit)
Q: *c1ccc(Oc2ccc(C(C)(C)c3ccc(Oc4ccc(-c5ccc(*)s5)cc4C(F)(F)F)cc3)cc2)c(C(F)(F)F)c1 (repeat unit)
R: *OC(F)(F)COC(=O)c1cccc(C(=O)OCC(*)(F)F)c1 (repeat unit)
Sort the entries above numerically by glass transition temperature, high end first. In plain terms: list the labels in the order you were asked to. P, Q, R

----------
Measurement type: glass transition temperature (°C)

Molecule | Measurement units | glass transition temperature
*c1ccc2c(c1)C(=O)N(c1c(C)cc(C3(c4cc(C)c(N5C(=O)c6ccc(C(*)(C(F)(F)F)C(F)(F)F)cc6C5=O)c(C)c4)c4ccccc4-c4ccccc43)cc1C)C2=O (repeat unit) | °C | 361.00
*OP(=O)(Oc1ccc(NC(=O)Oc2ccc(C(C)(C)c3ccc(OC(=O)Nc4ccc(*)cc4)cc3)cc2)cc1)c1ccccc1 (repeat unit) | °C | 34.00
*c1ccc(Oc2ccc(C(=O)c3ccc(Oc4ccc(-c5cc(*)n(-c6ccccc6)n5)cc4)cc3)cc2)cc1 (repeat unit) | °C | 205.00
*CC(*)C(=O)OCCCCCC(=O)Oc1ccc(-c2ccc(C#N)cc2)cc1 (repeat unit) | °C | 38.00
*CC(*)(F)C(C)=O (repeat unit) | °C | 142.00
*c1ccc(C(=O)c2ccc(-n3nc(-c4ccccc4)c4cc(Oc5ccc(C(C)(C)c6ccc(Oc7ccc8c(-c9ccccc9)nn(*)c(=O)c8c7)cc6)cc5)ccc4c3=O)cc2)cc1 (repeat unit) | °C | 195.00

I: *Oc1c(C)cc(*)cc1C(C)CCCCCCCCCCCC (repeat unit)
II: *CCOC(=O)Nc1ccc(Cc2ccc(NC(=O)OCCOc3ccc(O*)cc3)cc2)cc1 (repeat unit)
III: *C(=O)Nc1c(C)cc(Cc2cc(C)c(NC(=O)c3ccc4c(c3)C(=O)N(c3ccc(/N=N/c5ccc(OC(F)(F)F)cc5)c(N5C(=O)c6ccc(*)cc6C5=O)c3)C4=O)c(C)c2)cc1C (repeat unit)
Rank entries according to their glass transition temperature, from the largest number down. Put the labels in the requested order and write them down. III, II, I

P: *CC(F)(F)C(F)(F)C(F)(F)COC(=O)NCC(F)(F)C(F)(F)C(F)(F)C(F)(F)CNC(=O)O* (repeat unit)
Q: *CC(*)c1cc(-c2ccc(C(=O)OC3CC(C)CCC3C(C)C)cc2)ccc1-c1ccc(C(=O)OC2CC(C)CCC2C(C)C)cc1 (repeat unit)
Pick one: P or Q . Which one has the lower reported glass transition temperature? Which one? Tell me its label. P

meta.source: the PolyMetriX glass transition set
